System: Plasmodium falciparum
ASSAY REMARKS: Screen against P. falciparum Asexual Blood Stage (ABS), at 5uM
Format: functional, Dd2
CONDITION DESCRIPTION: tested at 5 uM
About 2,100 (3.2%) of roughly 65,000 compounds showed an effect of 50% or more. The median lay at about -52%. This is one part of a sample in which strong results are shown more often than they occur.
Entries and their INHIBITION values follow.
REPORTED METRIC: INHIBITION (%)

COMPOUND: COC(=O)NCCC(=O)NC(C)Cc1cccc(Br)c1 (stereo not drawn)
ASSAYED TARGET: Plasmodium falciparum
UNIT OF MEASURE: %
MEAS VALUE: -15.7
--
COMPOUND: CN(C)CC(=O)N1CCC2(CCc3cc(-c4cccnc4)ccc32)CC1
ASSAYED TARGET: Plasmodium falciparum
UNIT OF MEASURE: %
MEAS VALUE: 80.1
--
COMPOUND: Cc1n[nH]c2c1C(c1cccnc1)SCC(=O)N2 (stereo not drawn)
ASSAYED TARGET: Plasmodium falciparum
UNIT OF MEASURE: %
MEAS VALUE: -32.5
--
COMPOUND: Brc1ccc(CN2CCC(NCc3ncc[nH]3)CC2)cc1
ASSAYED TARGET: Plasmodium falciparum
UNIT OF MEASURE: %
MEAS VALUE: 83.5
--
COMPOUND: Cc1cccc(CO[C@@H]2CC[C@H]3[C@H]2OCCN3Cc2ccoc2)n1
ASSAYED TARGET: Plasmodium falciparum
UNIT OF MEASURE: %
MEAS VALUE: -50.4
--
COMPOUND: CC(C)n1cc(C(=O)NC2CN3CCC2CC3)c2ccccc21 (stereo not drawn)
ASSAYED TARGET: Plasmodium falciparum
UNIT OF MEASURE: %
MEAS VALUE: -24.9
--
COMPOUND: c1cncc(-c2ccc3c(c2)C2(CCNCC2)CC3)c1
ASSAYED TARGET: Plasmodium falciparum
UNIT OF MEASURE: %
MEAS VALUE: 71.1
--
COMPOUND: CN(Cc1nc(C2CC2)no1)C(=O)CN1CC(c2ccccc2)CC1=O (stereo not drawn)
ASSAYED TARGET: Plasmodium falciparum
UNIT OF MEASURE: %
MEAS VALUE: -52.4
--
COMPOUND: CCN(CC1CN(Cc2nc(C3CC3)no2)CCO1)c1cccnn1 (stereo not drawn)
ASSAYED TARGET: Plasmodium falciparum
UNIT OF MEASURE: %
MEAS VALUE: 73.3
--
COMPOUND: COC(=O)NCC(=O)NCC(C)(C)c1cccc(Br)c1
ASSAYED TARGET: Plasmodium falciparum
UNIT OF MEASURE: %
MEAS VALUE: 84.6
--
COMPOUND: Cc1cccc(CN2CC[C@@H]3[C@@H]2CCN3C(=O)c2cnoc2C)n1
ASSAYED TARGET: Plasmodium falciparum
UNIT OF MEASURE: %
MEAS VALUE: -26.9
--
COMPOUND: c1cncc(-c2ccc3c(c2)CCC32CCN(Cc3ccco3)CC2)c1
ASSAYED TARGET: Plasmodium falciparum
UNIT OF MEASURE: %
MEAS VALUE: 73.9
--
COMPOUND: Clc1cc(Cl)cc(CN2CCC(NCc3ncc[nH]3)CC2)c1
ASSAYED TARGET: Plasmodium falciparum
UNIT OF MEASURE: %
MEAS VALUE: 84.7
--
COMPOUND: c1coc(CN2CC[C@@H]3O[C@@H](COCc4ccncc4)CC[C@@H]32)c1
ASSAYED TARGET: Plasmodium falciparum
UNIT OF MEASURE: %
MEAS VALUE: -70.4
--
COMPOUND: CC(C)C[C@H](N)COc1cccc(F)c1Oc1ccc(Cl)cc1
ASSAYED TARGET: Plasmodium falciparum
UNIT OF MEASURE: %
MEAS VALUE: 86.5
--
COMPOUND: c1cncc(-c2ccc3c(c2)CCC32CCNCC2)c1
ASSAYED TARGET: Plasmodium falciparum
UNIT OF MEASURE: %
MEAS VALUE: 86.9
--
COMPOUND: O=S1(=O)C[C@@H]2[C@H](C1)N(Cc1ncc[nH]1)CCN2Cc1cccnc1
ASSAYED TARGET: Plasmodium falciparum
UNIT OF MEASURE: %
MEAS VALUE: -89.75
--
COMPOUND: O=C1N(c2cccnc2)CCC12CCCN(Cc1ccco1)C2 (stereo not drawn)
ASSAYED TARGET: Plasmodium falciparum
UNIT OF MEASURE: %
MEAS VALUE: -5.52
--
COMPOUND: O=C1NC2(CCCCC2)c2nnnn2-c2ccc(Br)cc21
ASSAYED TARGET: Plasmodium falciparum
UNIT OF MEASURE: %
MEAS VALUE: -67.2
--
COMPOUND: Cn1cc(CN2C[C@H]3CN(c4cncnc4)C(=O)[C@H]3C2)cn1
ASSAYED TARGET: Plasmodium falciparum
UNIT OF MEASURE: %
MEAS VALUE: -44.8
--
COMPOUND: CN(C)CCN1CCCC12CCCN(C(=O)c1cccnc1)C2 (stereo not drawn)
ASSAYED TARGET: Plasmodium falciparum
UNIT OF MEASURE: %
MEAS VALUE: -10.1
--
COMPOUND: CN(C)C(=O)CN1CCOCC2(C1)CN(c1ncccn1)CCO2 (stereo not drawn)
ASSAYED TARGET: Plasmodium falciparum
UNIT OF MEASURE: %
MEAS VALUE: -97
--
COMPOUND: CC(C)C[C@H](N)COc1cccc(F)c1Oc1ccccc1
ASSAYED TARGET: Plasmodium falciparum
UNIT OF MEASURE: %
MEAS VALUE: 70.9
